target: human H3 receptor (Homo sapiens); construct: expressed in transfected cells; test: Human H3 radioligand binding ([3H]-N-alpha-methylhistamine, CHO cell membranes, SPA); conditions: Table A, binding constant as letter class

MOLECULE: Cn1nc(-c2ccc(OCC3CCN(C4CCC4)CC3)cc2)ccc1=O [Example 67]
ASSAY SYSTEM: human H3 receptor (Homo sapiens)
Ki: 101 to 500 nM

MOLECULE: C[C@@H]1CCCN1CCCOc1ccc(C2=NN(C)C(=O)C3CCCC23)cc1 (some centres unmarked) [Example 58]
ASSAY SYSTEM: human H3 receptor (Homo sapiens)
Ki: 0.1 to 100 nM

MOLECULE: Cn1nc(-c2ccc(OCC3CCN(C(=O)OC(C)(C)C)CC3)cc2)ccc1=O [Example 65]
ASSAY SYSTEM: human H3 receptor (Homo sapiens)
Ki: > 1000 nM

MOLECULE: Cn1nc(-c2ccc(OCC3CCN(C(=O)OC(C)(C)C)CC3)cc2)c2ccccc2c1=O [Example 62]
ASSAY SYSTEM: human H3 receptor (Homo sapiens)
Ki: > 1000 nM

MOLECULE: Cc1cc(-c2ccc(OCCCN3CCCCC3)cc2)nn(C(C)C)c1=O [Example 42]
ASSAY SYSTEM: human H3 receptor (Homo sapiens)
Ki: 101 to 500 nM

====

target: human H3 receptor (Homo sapiens, UniProt Q9Y5N1); construct: expressed in transfected cells; assay: Human H3 radioligand binding ([3H]-N-alpha-methylhistamine, CHO cell membranes, SPA); conditions: Table B, binding constant as letter class
Sequence (Q9Y5N1 whole entry): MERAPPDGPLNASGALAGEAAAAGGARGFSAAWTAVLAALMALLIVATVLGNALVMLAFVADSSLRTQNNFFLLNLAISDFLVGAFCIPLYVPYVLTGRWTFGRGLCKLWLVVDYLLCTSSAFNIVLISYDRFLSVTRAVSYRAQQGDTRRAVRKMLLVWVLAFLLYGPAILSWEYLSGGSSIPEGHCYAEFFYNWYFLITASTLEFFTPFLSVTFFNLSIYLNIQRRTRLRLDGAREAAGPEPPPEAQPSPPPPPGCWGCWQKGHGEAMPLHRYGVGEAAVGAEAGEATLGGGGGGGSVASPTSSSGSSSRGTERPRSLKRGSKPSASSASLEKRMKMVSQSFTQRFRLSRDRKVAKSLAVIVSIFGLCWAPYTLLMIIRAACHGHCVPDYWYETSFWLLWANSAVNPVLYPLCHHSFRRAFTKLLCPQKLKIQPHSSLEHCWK

COMPOUND: C[C@@H]1CCCN1C[C@H](O)COc1ccc(-c2ccc(=O)[nH]n2)cc1 [Example 257]
Ki: 0.1 to 100 nM

COMPOUND: C[C@@H]1CCCN1CCCOc1ccc(-n2nc(C3CC3)ccc2=O)cc1 [Example 262]
Ki: 0.1 to 100 nM

COMPOUND: O=c1[nH]nc(-c2ccc(OCCCN3CCCCC3)cc2)c2c1CCC2 [Example 133]
Ki: 0.1 to 100 nM

COMPOUND: Cn1nc(-c2cccc(OCCCN3CCC[C@H]3CO)c2)c2c(c1=O)CCC2 [Example 127]
Ki: 501 to 1000 nM

COMPOUND: C[C@H](COc1ccc(-c2ccc(=O)[nH]n2)cc1)CN1CCC[C@H]1C [Example 132]
Ki: 0.1 to 100 nM

COMPOUND: O=c1ccc(-c2ccc(OCCCN3CCCCC3)c(F)c2)n[nH]1 [Example 120]
Ki: 0.1 to 100 nM

COMPOUND: CCN1N=C(c2ccc(OC3CCN(C4CCC4)CC3)cc2)C2CC2C1=O (stereo not drawn) [Example 250]
Ki: 0.1 to 100 nM

COMPOUND: CC1CC(=O)NN=C1c1ccc(OCCCN2CCC[C@H]2C)cc1 (single isomer, unassigned) [Example 195]
Ki: 0.1 to 100 nM

COMPOUND: O=C1NN=C(c2ccc(OC3CCN(C4CCC4)CC3)cc2)C2CCCC12 (stereo not drawn) [Example 174]
Ki: 0.1 to 100 nM

COMPOUND: C[C@@H]1CCCN1CCCOc1ccc(-c2ccc(=O)n(CCF)n2)cc1 [Example 118]
Ki: 0.1 to 100 nM

COMPOUND: CC1CC(=O)NN=C1c1ccc(OCCCN2CCC[C@H]2C)cc1 (mixture of isomers) [Example 194]
Ki: 0.1 to 100 nM

COMPOUND: C[C@@H]1CCCN1CCCOc1ccc(-c2ccc(=O)n(C)n2)cc1Cl [Example 85]
Ki: 0.1 to 100 nM

COMPOUND: Cc1cc(=O)[nH]nc1-c1ccc(OC2CCN(C3CCC3)CC2)cc1 [Example 222]
Ki: 0.1 to 100 nM

COMPOUND: O=C1CCC(c2ccc(O[C@@H]3CCN(C4CCCCC4)C3)cc2)=NN1 [Example 159]
Ki: > 1000 nM

COMPOUND: O=c1ccc(-c2ccc(OCCCN3CCOCC3)cc2)n[nH]1 [Example 238]
Ki: > 1000 nM

COMPOUND: COCn1ncc(-c2ccc(OCCCN3CCC[C@H]3C)cc2)cc1=O [Example 224]
Ki: 0.1 to 100 nM

COMPOUND: COCn1ncc(-c2ccc(OC3CCN(C4CCC4)CC3)cc2C)cc1=O [Example 234]
Ki: 0.1 to 100 nM

COMPOUND: CN1N=C(c2ccc(OC3CCN(C4CCCC4)CC3)cc2)C2CC2C1=O (stereo not drawn) [Example 260]
Ki: 0.1 to 100 nM

====

Counter-ions that a name gives are not always drawn.

COMPOUND: COCn1ncc(-c2ccc(OCCCN3CCCCC3)cc2C)cc1=O (as salt: HCl)
melting point: 185 to 197 °C (dec.)
--
COMPOUND: Cc1nn(-c2ccsc2)c(=O)cc1-c1ccc(OCCCN2CCC[C@H]2C)cc1 (as salt: HCl)
melting point: 212 to 213 °C
--
COMPOUND: C[C@@H]1CCCN1CCCOc1cccc(-c2nn(C)c(=O)c3c2CCC3)c1 (as salt: HCl)
melting point: 172 to 174 °C
--
COMPOUND: O=C1CCC(c2ccc(O[C@@H]3CCN(C4CCCCC4)C3)cc2)=NN1
melting point: 184 to 186 °C
--
COMPOUND: Cn1nc(-c2ccc(OCCCN3CCCCCC3)cc2)c2ccccc2c1=O (as salt: HCl)
melting point: 238 to 240 °C
--
COMPOUND: C[C@@H]1CCCN1CCCOc1ccc(-c2cc(Cc3ccccc3)c(=O)n(C)n2)cc1 (as salt: HCl)
melting point: 232 to 233 °C
--
COMPOUND: C[C@@H]1CCCN1CCCOc1ccc(C2=NNC(=O)C(C)(C)C2)cc1
melting point: 140 to 142 °C
--
COMPOUND: Cn1nc(-c2ccc(OCC3CCN(C(=O)OC(C)(C)C)CC3)cc2)ccc1=O
melting point: 164 to 166 °C
--
COMPOUND: Cn1nc(-c2ccc(OCCCN3CCC[C@@H]3CO)cc2)ccc1=O (as salt: HCl)
melting point: 166 to 167 °C
--
COMPOUND: O=c1ccc(-c2ccc(OCCCN3CCCCC3)nc2)n[nH]1
melting point: 155 to 158 °C
--
COMPOUND: O=c1ccc(-c2ccc(OCCCN3CCCCC3)c(F)c2)n[nH]1 (as salt: HCl)
melting point: 240 to 242 °C
--
COMPOUND: O=c1ccc(-c2ccc(OC3CCN(C4CCCC4)CC3)cc2)n[nH]1
melting point: 211 to 213 °C
--
COMPOUND: C[C@@H]1CCCN1CCCOc1ccc(-c2nn(C)c(=O)cc2-c2ccccc2)cc1 (as salt: HCl)
melting point: 207 to 209 °C
--
COMPOUND: Cc1cc(OCCCN2CCC[C@H]2C)ccc1-c1cn[nH]c(=O)c1 (as salt: HCl)
melting point: 186 to 188 °C
--
COMPOUND: C[C@@H]1CCCN1CCCOc1ccc(-c2ccc(=O)n(CCO)n2)cc1
melting point: 95 to 98 °C
--
COMPOUND: Cc1cc(-c2ccc(OCCCN3CCC[C@H]3C)cc2)n[nH]c1=O (as salt: HCl)
melting point: 207 to 208 °C
--
COMPOUND: Cn1nc(-c2ccc(OCCCN3CCCCC3)cc2)ccc1=O (as salt: HCl)
melting point: 200 to 201 °C

====

Where a name gives a salt, the structure may show the parent alone.
In this section, each of the molecules is paired with its reported melting point.

MOLECULE: C[C@@H]1CCCN1CCCOc1ccc(-c2n[nH]c(=O)cc2-c2ccccn2)cc1 (as salt: hydrochloride)
melting point: 234 °C (dec.)
//
MOLECULE: Cn1ncc2ccc(OCCCN3CCCCC3)cc2c1=O (as salt: HCl)
melting point: 251 to 252 °C
//
MOLECULE: O=C1CC2CCc3cc(OC4CCN(C5CCC5)CC4)ccc3C2=NN1 (centres unmarked)
melting point: > 300 °C
//
MOLECULE: Cc1cc(-c2ccc(OCCCN3CCCCC3)cc2)nn(C(C)C)c1=O (as salt: HCl)
melting point: 197 to 198 °C
//
MOLECULE: O=c1cc(-c2ccc(OCCCN3CCCCC3)cc2)cn[nH]1 (as salt: hydrochloride)
melting point: 249 to 250 °C
//
MOLECULE: C[C@H](COc1ccc(C2=NNC(=O)C3CC23)cc1)CN1CCC[C@H]1C (some centres unmarked)
melting point: 112 to 115 °C
//
MOLECULE: CC(C)n1ncc(-c2ccc(OCCCN3CCC[C@H]3C)cc2)cc1=O (as salt: HCl)
melting point: 251 to 253 °C
//
MOLECULE: Cc1ccc(=O)n(-c2ccc(OCCCN3CCC[C@H]3C)cc2)n1 (as salt: fumarate)
melting point: 168 to 170 °C
//
MOLECULE: Cc1cccnc1-n1ncc(-c2ccc(OCCCN3CCC[C@H]3C)cc2)cc1=O (as salt: hydrochloride)
melting point: 98 to 100 °C
//
MOLECULE: Cn1nc(-c2ccc(OCCCN3CCCCC3)cc2)c2c(c1=O)CCC2 (as salt: HCl)
melting point: 214 to 216 °C
//
MOLECULE: C[C@@H]1CCCN1CCCOc1c(F)cc(-c2ccc(=O)n(C)n2)cc1F
melting point: 175 to 178 °C
//
MOLECULE: Cc1n[nH]c(=O)cc1-c1ccc(OC2CCN(C3CCC3)CC2)cc1 (as salt: HCl)
melting point: 296 to 297 °C
//
MOLECULE: O=C1CCC(c2ccc(OC3CCN(C4CCC4)CC3)cc2)=NN1CC(F)(F)F
melting point: 146 to 147 °C
//
MOLECULE: Cc1cc(=O)[nH]nc1-c1ccc(OCCCN2CCC[C@H]2C)cc1
melting point: 253 to 255 °C
//
MOLECULE: C[C@@H]1CCCN1CCCOc1ccc(C2=NN(c3ccccn3)C(=O)CC2)cc1 (as salt: HCl)
melting point: 203 to 205 °C
//
MOLECULE: C[C@@H]1CCCN1CCCOc1ccc(-c2ccc(=O)[nH]n2)cc1F (as salt: HCl)
melting point: 252 to 253 °C
//
MOLECULE: O=C1NN=C(c2ccc(OC3CCN(C4CCC4)CC3)cc2)C2CCC12 (centres unmarked) (as salt: HCl)
melting point: 285 to 288 °C
//
MOLECULE: O=c1ccc(-c2ccc(OCCCN3CCCCC3)cc2)nn1CC(F)(F)F
melting point: 128 to 130 °C
//
MOLECULE: O=c1ccc(-c2ccc(O[C@@H]3CCN(C4CCCCC4)C3)cc2)n[nH]1
melting point: 200 to 202 °C
//
MOLECULE: O=c1ccc(-c2ccc(OC3CCN(C4CCC4)CC3)cc2F)n[nH]1
melting point: > 300 °C
//
MOLECULE: C[C@@H](COc1ccc(-c2ccc(=O)n(C)n2)cc1)CN1CCC[C@H]1C (as salt: HCl)
melting point: 76 to 78 °C
//
MOLECULE: C[C@@H]1CCCN1CCCOc1ccc(-c2ccc(=O)[nH]n2)cn1
melting point: 178 to 181 °C
//
MOLECULE: Cn1nc(-c2ccc(OCC3CCNCC3)cc2)c2ccccc2c1=O (as salt: HCl)
melting point: 207 to 209 °C
//
MOLECULE: CCCn1nc(-c2ccc(OCCCN3CCC[C@H]3C)cc2)c2sccc2c1=O (as salt: HCl)
melting point: 151 to 153 °C
//
MOLECULE: Cc1nn(-c2ccccn2)c(=O)cc1-c1ccc(OCCCN2CCC[C@H]2C)cc1 (as salt: hydrochloride)
melting point: 155 to 157 °C
//
MOLECULE: Cn1ncc(-c2ccc(OCCCN3CCCCCC3)cc2)cc1=O (as salt: hydrochloride)
melting point: 247 to 248 °C
//
MOLECULE: Cn1nc(-c2cccc(OCCCN3CCCCC3)c2)c2c(c1=O)CCC2 (as salt: HCl)
melting point: 189 to 190 °C
//
MOLECULE: C[C@H](COc1ccc(-c2cn[nH]c(=O)c2)cc1)CN1CCCCC1
melting point: 145 to 148 °C
//
MOLECULE: CC(C)N1CCC(COc2ccc(-c3ccc(=O)n(C)n3)cc2)CC1 (as salt: HCl)
melting point: 187 to 189 °C
//
MOLECULE: CC1CC(=O)NN=C1c1ccc(OC2CCN(C3CCC3)CC2)cc1 (racemic)
melting point: 163 to 165 °C
//
MOLECULE: C[C@@H]1CCCN1CCCOc1ccc(-c2nn(C)c(=O)c3c2CCCC3)cc1 (as salt: HCl)
melting point: 156 to 158 °C
//
MOLECULE: Cc1cc(-c2ccc(OCCCN3CCC[C@H]3C)cc2)nn(C)c1=O (as salt: HCl)
melting point: 175 to 176 °C
